applied conditions: in toluene, 288.15 K
measurement name: solubility (mole fraction)
Give bare numbers.

Could you please provide reported solubility (mole fraction) for O=C(O)/C=C/C(=O)O.OCCOCCN1CCN(C2=Nc3ccccc3Sc3ccccc32)CC1.OCCOCCN1CCN(C2=Nc3ccccc3Sc3ccccc32)CC1 ? Thanks! 3.49e-05

====

applied conditions: in n-hexane, 288.15 K
measurement name: solubility (mole fraction)
Numbers only.

Give solubility (mole fraction) for the following compound: O=C(O)/C=C/C(=O)O.OCCOCCN1CCN(C2=Nc3ccccc3Sc3ccccc32)CC1.OCCOCCN1CCN(C2=Nc3ccccc3Sc3ccccc32)CC1 1.77e-05

====

applied conditions: in isopropyl acetate, 313.15 K
measurement name: solubility (mole fraction)

Specify solubility (mole fraction) for O=C(O)/C=C/C(=O)O.OCCOCCN1CCN(C2=Nc3ccccc3Sc3ccccc32)CC1.OCCOCCN1CCN(C2=Nc3ccccc3Sc3ccccc32)CC1 and stop. 0.000127
